Tested on: CAKI-1 renal
Test: NCI tumour cell line growth inhibition, 48 h
Measurement type: TGI

CCN(CC)CC(=O)N1CCc2c([nH]c3ccccc23)C1c1cccnc1 (stereo not given); > 100 µM
COc1ccc(CC(O)CN2CCOCC2)cc1 (stereo not given); > 100 µM
COc1c(Br)cc(Br)c(OC)c1-c1[nH]c(Br)c(Br)c1Br; 9.1 µM
CCOc1cc(C2CC(c3ccc(NS(=O)(=O)c4cc([N+](=O)[O-])ccc4C)cc3)=NN2C(=O)c2ccccc2)ccc1O (stereo not given); > 100 µM
NC(=O)C1(N2CCCCC2)CCN(CCCC(=O)c2ccc(F)cc2)CC1; > 100 µM
c1ccc(Cn2cnc3ccc(-c4nc(-c5ccc6c(c5)ncn6C5CCCCC5)cn5ccnc45)cc32)cc1; > 100 µM
Cc1cc2[nH]c3[nH]c(=O)[nH]c(=O)c3c2cc1C; > 100 µM
CCN(C(=S)N[C@@H](Cc1ccccc1)C(=O)N[C@@H](CC(C)C)C(=O)OC)c1ccccc1; > 100 µM
O=c1c2cc3c(cc2[nH]c2ncccc12)OCO3; > 10 µM
C#CCC(N)(CO)C(=O)O (stereo not given); > 100 µM
